- Tested on: CAKI-1
- test details: NCI tumour cell line growth inhibition, 48 h
Activity calls are given as the source filed them. Rule as the data show it: active = GI50 up to about 1.1 µM and inactive = higher.
The reply should name one outcome from active, inactive

molecule	label class
CC(C)(C)C1CCC2c3c([nH]c4ccccc34)C3C(=O)N(c4ccc5c(c4)C(=O)c4ccccc4C5=O)C(=O)C3C2C1 (centres undefined)	inactive
CCC(C)N1CN(c2ccccc2)C2(CCN(CCCC(=O)c3ccc(F)cc3)CC2)C1=O (centres undefined)	inactive
CCCCCCCCCc1cc(=O)c2c(O)cc(O)cc2o1	inactive
Fc1cccc2c1cc1ccc3cccc4ccc2c1c34	inactive
O=C1C=C(N2CCN(CCOCCO)CC2)C(=O)c2c(O)ccc(O)c21	inactive

## Task Which outcome was assigned to CCOC(=O)C#Cc1cccc(C#CC(=O)OCC)c1 in this test?
## Result inactive

## Task For COc1cc2c(cc1OCCCOc1cc3c(cc1OC)C(=O)N1CCC[C@H]1CN3)N=C[C@@H]1CCCN1C2=O , what call appears in the results of this test?
## Result active

## Task Name the outcome recorded for CN(C)C(=S)S [SODIUM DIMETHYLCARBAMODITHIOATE] in the assay.
## Result inactive

## Task Please indicate how the test categorized COc1ccc(SC(C)(SC)c2ccccn2)c(OC)n1 (centres undefined) .
## Result inactive
